Biological target: Potassium voltage-gated channel subfamily KQT member 2 (Rattus norvegicus)
Assay: KCNQ2 potentiation in CHO cells – cell-based, FluxOR thallium flux, counter-screen for hERG block protector project, confirmation (AID 1942);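 also: normalized value minus buffer-control mean plus three SD of buffer wells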
Conditions: FluxOR thallium flux fluorescence, at 10 µM, hits give high values
In all, about 2,400 compounds went through this assay and about 580 (24%) were called active. The list is a sample of the results.
Here the recorded activity change, less the hit threshold is given for each entry.
MEASUREMENT_TYPE: activity change, less the hit threshold (%)

• Cc1[nH]c(=S)c(C#N)c(C)c1Cc1ccc(Cl)cc1Cl = -7.1
• CCOC(=O)c1sc(NC(=S)NC(=O)c2ccco2)nc1C = 4.8
• S=c1nn[nH]n1C12CC3CC(CC(C3)C1)C2 = 21.6
• COc1ccc(NC(=O)CC23CC4CC(CC(C4)C2)C3)cn1 = 44.4
• CCOC(=O)c1sc(NC(=S)NC(=O)c2cccc(OC)c2)nc1C = 4.7
• CC(=O)Oc1c(-c2ccc(Br)o2)oc2ccccc2c1=O = 99.4
• Cc1cc(C)cc(-n2nnc(C(=O)NCc3ccc4c(c3)OCO4)c2N)c1 = -15.8
• NC(=O)Cn1c2[n+](c3ccccc31)CC(O)CS2 (stereo not drawn) = -19.2
• O=C(CSc1nc(-c2ccccc2)nc2ccc(F)cc12)Nc1cccc(C(=O)O)c1 = -4.9
• Cc1c(C#N)c(O)[nH]c(=O)c1N=Nc1ccc(Br)cc1C(=O)O = -13.8
• O=C(c1ccc(CS(=O)c2cccc(Cl)c2)o1)N1CCCCCC1 (stereo not drawn) = -25.8
• COc1ccc(-c2nc(=S)c3c([nH]2)Oc2ccc(C)cc2C3)cc1O = -18.3
• CCOC(=O)c1cccc(C(=O)Nc2nc3ccc(OC)cc3s2)n1 = -15.8
• CC(=O)Oc1c(-c2ccco2)oc2ccccc2c1=O = 6.8
• COc1cc(OC)cc(C(=O)NC(=S)Nc2ccc(NC(=O)c3ccco3)cc2)c1 = -20.6
• CCOc1ccc(NC(=S)NC(=O)c2ccco2)cc1 = 8
• CN(CC(=O)Nc1ccc(OC(F)(F)F)cc1)S(=O)(=O)c1cnc[nH]1 = -18.2
• CCOc1ccc(NC(=O)CN(C)C(=O)c2c(-c3c(F)cccc3Cl)noc2C)cc1OCC = -16.8
• CCC(NS(=O)(=O)c1cn(C)nc1C)c1ccccc1 (stereo not drawn) = -7.9
• O=C(N/N=C\c1coc2ccccc2c1=O)c1ccco1 = -15.7
• CCCn1c(SCC(N)=O)nc2c(c1=O)C1(CCCC1)Cc1ccccc1-2 = -2.1
• CCCCOc1ccc(-c2c(C#N)c(N)[nH]c(=S)c2C#N)cc1 = -10.1
• C[n+]1ccccc1/C=C/c1ccc(C#N)cc1 = -12.2

* * *

Biological target: Potassium voltage-gated channel subfamily KQT member 2 (Rattus norvegicus)
Test: KCNQ2 potentiation in CHO cells – cell-based, FluxOR thallium flux, counter-screen for hERG block protector project, confirmation (AID 1942);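 also: normalized value minus buffer-control mean plus three SD of buffer wells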
Settings: FluxOR thallium flux fluorescence, at 10 µM, hits give high values
Out of some 2,400 compounds screened, about 580 (24%) were called active. Not all results are given here.
Answer F if activity change, less the hit threshold is under -10%, and T if it is -10% or more.

• Cc1ccc(C(=O)COC(=O)C2CCC2)cc1 = T
• CC(C)(C)NC(=O)C(=O)NNC(=O)COc1ccc(Br)cc1 = T
• O=C(NN1C(=O)C2C(c3ccccc3)C=CC(c3ccccc3)C2C1=O)c1cccc(Br)c1 (configuration not stated) = T
• O=C(NC(=S)Nc1ccccc1N1CCCC1)c1ccccc1Br = F
• O=c1c(-c2cccc3ccccc23)[n+]([O-])c2ccccc2n1O = T
• Cc1ccc(Cn2c(O)c(N=NC(=S)Nc3ccccc3F)c3ccccc32)cc1 = F
• CC(=O)Nc1ccc(S(=O)(=O)NC2(C(F)(F)F)C(=O)Nc3c2c(=O)[nH]c(=O)n3C)cc1 (configuration not stated) = F
• FC(F)(F)c1cnc2c(c1)[nH]c(=S)n2-c1ccc(Cl)cc1 = T
• Nc1cccc(Oc2cnccn2)c1 = F
• CCc1cc(=O)[nH]c(SCc2ccc(C)cc2)n1 = F
• COc1ccccc1NC(=S)NC(=O)c1ccc(-c2ccc(Cl)cc2)o1 = T
• Cc1ccc(NC(=S)NC(=O)c2cncc(Br)c2)cc1Cl = F
• CC12CCC(C(=O)NCc3ccc4c(c3)OCO4)(CC1=O)C2(C)C (configuration not stated) = T
• CCCc1cc(C(=O)NNC(=S)Nc2cccc(C)c2)cs1 = F
• CCOC(=O)C1=C(O)c2ccccc2C(=O)/C1=C\c1ccc(CC)cc1 = T
• COc1ccc2ncc(OC(C)=O)cc2c1 = T
• Cc1oc2cc(O)ccc2c(=O)c1N1C(=O)c2ccccc2C1=O = F
• O=C(NC(=S)Nc1nc(-c2ccccc2)cs1)c1cccs1 = F
• CC(Oc1ccc(Cl)cc1)/C(N)=N/O (configuration not stated) = F
• CC(C)(C)NC(=O)C(=O)NNC(=O)c1ccccc1 = T
• CC(C)(C)c1ccc(C(=O)CC(=O)c2cc(Cl)ccc2O)cc1 = F
• O=c1c(-c2ccc(Cl)cc2)[n+]([O-])c2ccccc2n1O = T
• CCOc1cc(N2CCCC2)ccc1[N+](=O)[O-] = F
• Cc1ccc(/C=C/C(=O)C2C(=O)c3ccccc3C2=O)cc1 = T
• Cc1ccc(-c2c(=O)n(O)c3ccccc3[n+]2[O-])cc1 = T
• O=C1CCCN1C(=O)COc1ccccc1[N+](=O)[O-] = F
• COc1ccc(N(C(=O)c2ccco2)S(=O)(=O)c2cccs2)cc1 = F
• CCOc1ccc(N)c(SSc2cc(OCC)ccc2N)c1 = F
• Cc1ccc(C(=O)CC(=O)COc2ccc(Cl)cc2C)cc1 = T
• Cc1ccc2nc(NC(=S)NC(=O)c3cccs3)sc2c1 = T
• O=C(O)c1cc(-c2cccc([N+](=O)[O-])c2)n[nH]1 = F
• CCSc1nc(=S)cc(C)[nH]1 = T
• Cc1cc(=O)oc(C)c1C(=O)NCCC(C)C = T
• O=C(CCCc1c[nH]c2ccccc12)Nc1ccc(S(=O)(=O)Nc2ncccn2)cc1 = F
• CSc1nc(=S)cc(C)[nH]1 = T
• CCOc1ccc(Nc2ccc([N+](=O)[O-])c3nonc23)cc1 = T
• Cc1nn(CCC(=O)NNC(=S)Nc2ccc(F)cc2)c(C)c1[N+](=O)[O-] = F
• Cc1ccc(CNC(=O)CN2C(C)CCCC2C)cc1 (configuration not stated) = F
• O=c1c(-c2ccccc2)[n+]([O-])c2ccccc2n1O = F
• Oc1c(N=NC(=S)Nc2ccccc2F)c2ccccc2n1Cc1ccc(F)cc1 = T
• Cc1ccc(CN2CCN(/N=C/c3ccc(O)c(O)c3)CC2)cc1 = T
• COC(=O)c1cc2sc(Cl)cc2n1CC(=O)NCC1CCCO1 (configuration not stated) = F
• CCN1CCN(CCNC(=O)CCCn2nc(C)c3c(C)n(-c4ccc(C)cc4)nc3c2=O)CC1 = F
• CC(C)(C)NC(=O)C(=O)NNC(=O)c1cccc(Br)c1 = T
• O=C(NC1CCCC1)C(c1ccncc1)N(C(=O)Cn1nnc(-c2ccccc2F)n1)c1cccc(F)c1 (configuration not stated) = F
• COc1cc(C(=S)N2CCOCC2)ccc1OC(=O)c1ccc([N+](=O)[O-])cc1[N+](=O)[O-] = F
